# System: ryegrass, Italian (Lolium multiflorum)
# MEASUREMENT_PROTOCOL: Test A postemergence, Italian ryegrass
# Format: in vivo
# ASSAY_CONDITIONS: 500 g ai/ha, visual injury, 0 to 100 scale (0 no effect, 100 complete control), approximately 10 days
Quick reference: Plant response rating, Ryegrass, Italian of the listed items.
ASSAY_READOUT: Plant response rating, Ryegrass, Italian

>>> print(df.to_string())
                                   molecule  numeric_result
0  O=C1NCC(c2cccc(OCc3ccco3)c2)C1C(=O)Nc1cccc(F)c1F (centres unmarked)               0
1  O=C1NCC(c2cccc(Oc3ncc(F)cn3)c2)C1C(=O)Nc1cccc(F)c1F (single isomer, unassigned)              60
2  O=C1NCC(c2cccc(OCc3ccco3)c2)C1C(=O)Nc1ccccc1C(F)(F)F (centres unmarked)              10
3  O=C1NCC(c2cccc(Cn3cccn3)c2)C1C(=O)Nc1cccc(F)c1F (centres unmarked)               0
4  O=C1NCC(c2cccc(COc3ccccc3)c2)C1C(=O)Nc1cccc(F)c1F (centres unmarked)               0
5  O=C1NCC(c2cccc(Cn3cccn3)c2)C1C(=O)Nc1ccccc1Cl (centres unmarked)               0
6  CN1CC(c2cccc(Oc3ccc(F)cc3)c2)C(C(=O)Nc2cccc(F)c2F)C1=O (single isomer, unassigned)              30
7  CN1CC(c2cccc(Sc3ccccc3)c2)C(C(=O)Nc2cccc(F)c2F)C1=O (single isomer, unassigned)              30
